- MEASUREMENT DESCRIPTION: Phase I calcium acetate interaction study
- Assay type: in vivo, human
- REPORTED CONDITIONS: human, plasma, oral, 300 mg, Vadadustat administered 2 hours after calcium acetate; read-out: Volume of distribution (Vc)
- Experimental: A phase I, open-label, fixed-sequence study was conducted in healthy adult subjects to assess the effect of 1) a single oral dose of calcium acetate on the pharmacokinetics of a single oral dose of vadadustat. The study included screening (28 days maximum), 9-day treatment period, and a 14-day follow-up period post last dose. Pharmacokinetics. […] The following parameters were calculated and analyzed: AUC0-∞, AUC0-last, Cmax, Tmax, Kel, CIB, Vc/F, and t1/2. […]
MEASURED PARAMETER: Vd (L)
Respond with the bare value in L.

Q) Name the reported Vd value associated with the compound `O=C(O)CNC(=O)c1ncc(-c2cccc(Cl)c2)cc1O`
A) 17.8

====

- MEASUREMENT DESCRIPTION: Phase I single-dose study, moderate hepatic impairment versus normal hepatic function
- Type: in vivo, human
- REPORTED CONDITIONS: both sexes, human, plasma, oral, 450 mg, AUC0-inf, Geometric LSM, Total Compound 1, single 450 mg, Normal Liver Function
MEASURED PARAMETER: AUC(0-inf)
Please format your answer as a value with the unit trailing.

Q) Name the reported AUC(0-inf) value associated with the compound O=C(O)CNC(=O)c1ncc(-c2cccc(Cl)c2)cc1O [Compound 1]
A) 394 µg·h/mL

====

- MEASUREMENT DESCRIPTION: Phase I single-dose study, moderate hepatic impairment versus normal hepatic function
- Type: in vivo, human
- REPORTED CONDITIONS: both sexes, human, plasma, oral, 450 mg, AUC0-inf, Geometric LSM, Total Compound 1, single 450 mg, Moderate Hepatic Impairment
MEASURED PARAMETER: AUC(0-inf) (µg·h/mL)
Respond with the bare value in µg·h/mL.

Q) Name the reported AUC(0-inf) value associated with the compound O=C(O)CNC(=O)c1ncc(-c2cccc(Cl)c2)cc1O [Compound 1]
A) 414

====

- TARGET OF ASSAY: human PHD3 (Homo sapiens)
- Sequence (Q9H6Z9 whole entry): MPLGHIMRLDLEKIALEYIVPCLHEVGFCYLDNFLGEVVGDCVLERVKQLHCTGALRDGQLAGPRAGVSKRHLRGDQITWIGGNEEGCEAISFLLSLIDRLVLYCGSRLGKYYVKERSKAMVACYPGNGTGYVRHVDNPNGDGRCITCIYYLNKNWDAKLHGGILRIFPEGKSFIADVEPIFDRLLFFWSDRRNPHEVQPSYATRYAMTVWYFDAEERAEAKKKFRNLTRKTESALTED
MEASURED PARAMETER: IC50 (nM)
Respond with the bare value in nM.

Q) Record lookup: for human PHD3 (Homo sapiens), what IC50 belongs to `O=C(O)CNC(=O)c1ncc(-c2cccc(Cl)c2)cc1O` ?
A) 7.63

====

- MEASUREMENT DESCRIPTION: Phase 1 oral iron interaction study, Cohort 1 (after meal): sodium ferrous citrate, ferric citrate hydrate
- Assay type: in vivo, human
- REPORTED CONDITIONS: male, human, plasma, oral, 150 mg with sodium ferrous citrate (200 mg iron), read-out: AUC(0-inf), LS geometric mean
MEASURED PARAMETER: AUC(0-inf) (ng·h/mL)
Respond with the bare value in ng·h/mL.

Q) Name the reported AUC(0-inf) value associated with the compound O=C(O)CNC(=O)c1ncc(-c2cccc(Cl)c2)cc1O [Compound 1]
A) 46600

====

- MEASUREMENT DESCRIPTION: Phase I single-dose study, moderate hepatic impairment versus normal hepatic function
- Type: in vivo, human
- REPORTED CONDITIONS: both sexes, human, plasma, oral, 450 mg, single 450 mg, Normal Liver Function, mean ± SD; read-out: Volume of distribution (Vd/F), total
MEASURED PARAMETER: Vd/F

Q) Name the reported Vd/F value associated with the compound `O=C(O)CNC(=O)c1ncc(-c2cccc(Cl)c2)cc1O`
A) 9.6 L

====

- TARGET OF ASSAY: human PHD1 (Homo sapiens, UniProt Q96KS0)
- Sequence (Q96KS0 whole entry): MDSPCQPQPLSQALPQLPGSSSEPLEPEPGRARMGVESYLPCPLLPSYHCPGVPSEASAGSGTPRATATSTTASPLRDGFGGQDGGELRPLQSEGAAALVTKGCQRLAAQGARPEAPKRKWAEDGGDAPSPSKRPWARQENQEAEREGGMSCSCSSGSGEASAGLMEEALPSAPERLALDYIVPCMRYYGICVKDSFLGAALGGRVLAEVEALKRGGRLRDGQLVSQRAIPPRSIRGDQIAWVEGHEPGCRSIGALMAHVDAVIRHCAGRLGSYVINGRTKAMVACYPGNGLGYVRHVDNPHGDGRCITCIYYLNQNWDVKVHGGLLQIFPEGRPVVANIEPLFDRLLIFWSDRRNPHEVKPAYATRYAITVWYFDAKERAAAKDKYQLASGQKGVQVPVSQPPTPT
MEASURED PARAMETER: pIC50
The meaning of pIC50 here: minus log10 of the concentration in molar units.

Q) Record lookup: for human PHD1 (Homo sapiens, UniProt Q96KS0), what pIC50 belongs to `O=C(O)CNC(=O)c1ncc(-c2cccc(Cl)c2)cc1O` ?
A) 7.81

====

- MEASUREMENT DESCRIPTION: Phase I calcium acetate interaction study
- Type: in vivo, human
- REPORTED CONDITIONS: human, plasma, oral, 300 mg, Vadadustat administered 1 hour prior to calcium acetate, fasting, median
MEASURED PARAMETER: Tmax (h)
Respond with the bare value in h.

Q) Name the reported Tmax value associated with the compound O=C(O)CNC(=O)c1ncc(-c2cccc(Cl)c2)cc1O [Compound 1]
A) 1.44

====

- MEASUREMENT DESCRIPTION: Phase I calcium acetate interaction study
- Type: in vivo, human
- REPORTED CONDITIONS: human, plasma, oral, 300 mg, Vadadustat administered 2 hours after calcium acetate
MEASURED PARAMETER: AUC(0-t) (µg·h/mL)
Respond with the bare value in µg·h/mL.

Q) Name the reported AUC(0-t) value associated with the compound `O=C(O)CNC(=O)c1ncc(-c2cccc(Cl)c2)cc1O`
A) 132

====

- MEASUREMENT DESCRIPTION: Phase 1 oral iron interaction study, Cohort 1 (after meal): sodium ferrous citrate, ferric citrate hydrate
- Assay type: in vivo, human
- REPORTED CONDITIONS: male, human, plasma, oral, 150 mg with ferric citrate hydrate (2000 mg ferric citrate), read-out: AUC(0-inf), LS geometric mean
MEASURED PARAMETER: AUC(0-inf) (ng·h/mL)
Respond with the bare value in ng·h/mL.

Q) Name the reported AUC(0-inf) value associated with the molecule O=C(O)CNC(=O)c1ncc(-c2cccc(Cl)c2)cc1O [Compound 1]
A) 32400

====

- MEASUREMENT DESCRIPTION: Phase I calcium acetate interaction study
- Format: in vivo, human
- REPORTED CONDITIONS: human, plasma, oral, 300 mg, Vadadustat administered 2 hours after calcium acetate; read-out: AUC0-∞
MEASURED PARAMETER: AUC(0-inf) (µg·h/mL)
Respond with the bare value in µg·h/mL.

Q) Name the reported AUC(0-inf) value associated with the compound `O=C(O)CNC(=O)c1ncc(-c2cccc(Cl)c2)cc1O`
A) 135

====

- MEASUREMENT DESCRIPTION: Plasma pharmacokinetics, 150/300/600 mg once daily, first day
- Type: in vivo
- REPORTED CONDITIONS: male, human, 300 mg once daily, healthy adult men
MEASURED PARAMETER: AUC(0-t) (µg·h/mL)
Respond with the bare value in µg·h/mL.

Q) Name the reported AUC(0-t) value associated with the compound O=C(O)CNC(=O)c1ncc(-c2cccc(Cl)c2)cc1O [Compound 1]
A) 289

====

- MEASUREMENT DESCRIPTION: Phase I single-dose study, moderate hepatic impairment versus normal hepatic function
- Format: in vivo, human
- REPORTED CONDITIONS: both sexes, human, plasma, oral, 450 mg, single 450 mg, Moderate Hepatic Impairment, mean ± SD; read-out: Elimination Half-life (t1/2) (converted)
MEASURED PARAMETER: half-life (h)
Respond with the bare value in h.

Q) Name the reported half-life value associated with the compound `O=C(O)CNC(=O)c1ncc(-c2cccc(Cl)c2)cc1O`
A) 7.8

====

- MEASUREMENT DESCRIPTION: Phase 1 oral iron interaction study, Cohort 3 (fasting): dried ferrous sulfate slow release
- Format: in vivo, human
- REPORTED CONDITIONS: male, human, plasma, oral; 150 mg with dried ferrous sulfate slow release (210 mg iron), fasting; read-out: AUC(0-last), LS geometric mean
MEASURED PARAMETER: AUC(0-t) (ng·h/mL)
Respond with the bare value in ng·h/mL.

Q) Name the reported AUC(0-t) value associated with the molecule `O=C(O)CNC(=O)c1ncc(-c2cccc(Cl)c2)cc1O`
A) 12000

====

- MEASUREMENT DESCRIPTION: Phase I single-dose study, moderate hepatic impairment versus normal hepatic function
- Format: in vivo, human
- REPORTED CONDITIONS: both sexes, human, plasma, oral, 450 mg, single 450 mg, Moderate Hepatic Impairment, median
MEASURED PARAMETER: Tmax (h)
Respond with the bare value in h.

Q) Name the reported Tmax value associated with the compound `O=C(O)CNC(=O)c1ncc(-c2cccc(Cl)c2)cc1O`
A) 2

====

- MEASUREMENT DESCRIPTION: Phase I interaction study Part 1: rosuvastatin
- Type: in vivo, human
- REPORTED CONDITIONS: both sexes, human, plasma, oral; Treatment R: rosuvastatin 20 mg alone; read-out: Cmax, Geometric LSM
MEASURED PARAMETER: Cmax (ng/mL)
Respond with the bare value in ng/mL.

Q) Name the reported Cmax value associated with the molecule CC(C)c1nc(N(C)S(C)(=O)=O)nc(-c2ccc(F)cc2)c1/C=C/[C@@H](O)C[C@@H](O)CC(=O)O [Rosuvastatin, rosuvastatin]
A) 10.2

====

- MEASUREMENT DESCRIPTION: Phase I calcium acetate interaction study
- Type: in vivo, human
- REPORTED CONDITIONS: human, plasma, oral, 300 mg, Vadadustat administered 1 hour prior to calcium acetate, fasting
MEASURED PARAMETER: Cmax
Please format your answer as a value with the unit trailing.

Q) Name the reported Cmax value associated with the molecule O=C(O)CNC(=O)c1ncc(-c2cccc(Cl)c2)cc1O [Compound 1]
A) 25000 ng/mL
